- Test system: PfAP2-HC AP2 domain (GST-tagged)
- Assay method text: gcPBM binding intensity (ln(normalized median fluorescence intensity)); higher = stronger DNA binding
Whole data set: some 25,000 sequences, median “ln(normalized median fluorescence intensity)” near 9.7, cut for the highest 2% near 11. The entries come from a sample that favours the highest values as a whole.
Parameter: gcPBM binding intensity (ln)
# output: bare number, no unit

So the reported gcPBM binding intensity (ln) for ATAAATAAATAAATAAATAAATAAATAAATATATAT [CACACA_negctrl_site1728] , on PfAP2-HC AP2 domain (GST-tagged), turned out to be 9.74

So the reported gcPBM binding intensity (ln) for TAAAAACCAAAGAAAAGTACAAATTTAAATGAGAAA [XGTACX_site7450] , on PfAP2-HC AP2 domain (GST-tagged), turned out to be 9.83

So the reported gcPBM binding intensity (ln) for GAATATAAACATATTACACACATCTATCTGTACATT [CACACA_site5114] , on PfAP2-HC AP2 domain (GST-tagged), turned out to be 9.97

So the reported gcPBM binding intensity (ln) for TCATACTGTATATTTTGTACTTATATATATATTATA [XGTACX_site6136] , on PfAP2-HC AP2 domain (GST-tagged), turned out to be 10

So the reported gcPBM binding intensity (ln) for ATGTTTTATAAAAGGCGTACACATATGCTTAAGTAA [XGTACX_site6232] , on PfAP2-HC AP2 domain (GST-tagged), turned out to be 9.71

----------
- Tested on: PfAP2-HC AP2 domain (GST-tagged)
- Assay method text: gcPBM binding intensity (ln(normalized median fluorescence intensity)); higher = stronger DNA binding
The full ranking holds about 25,000 sequences; the median of “ln(normalized median fluorescence intensity)” is about 9.7, and the highest 2% start at about 11. The list comes from a sample in which the highest values are over-represented; it also holds close analogues and randomly drawn sequences.
Parameter: gcPBM binding intensity (ln)

Per the record, TATATAACTAAAATAACACACATATATAAAAATATA [CACACA_site7416] has gcPBM binding intensity (ln) of 9.88

Per the record, AATAAATATAAATACACACCCATATAAATATAAATA [CACACA_site7264] has gcPBM binding intensity (ln) of 10.1

Per the record, AATGTACCCACACCCACACACAAACAAATATATATA [CACACA_site2751] has gcPBM binding intensity (ln) of 10.2

Per the record, GCATCTCATTTGTGATGTACTATATTATCCGTTTTT [XGTACX_site7576] has gcPBM binding intensity (ln) of 9.71

Per the record, TACATATATAAAAAAACACACACATATATATATATA [CACACA_site8315] has gcPBM binding intensity (ln) of 9.93

Per the record, ATAAAATGCGCAAACACACACAAAAAAAAGATATAT [CACACA_site6875] has gcPBM binding intensity (ln) of 10.2

Per the record, AGCCACTTAAAATACACACACACCAAAAAAAAAAAA [CACACA_site5497] has gcPBM binding intensity (ln) of 10.2

Per the record, ACGGACTTAAAATACACACACACCAAAAAAAAAAAA [CACACA_site7304] has gcPBM binding intensity (ln) of 10.2

Per the record, TATATATATTTATACACACACATATATTTATATATT [CACACA_site484] has gcPBM binding intensity (ln) of 9.97

Per the record, ATAATATATATATAAACACACAAAAAAAATTATATA [CACACA_site1534] has gcPBM binding intensity (ln) of 9.86

Per the record, AATCACAACAGACACACACACAAAAAAAAAAAAAAA [CACACA_site1442] has gcPBM binding intensity (ln) of 10.1

----------
Provide the reported gcPBM binding intensity (ln) of each item.
- System: PfAP2-HC AP2 domain (GST-tagged)
- Assay method text: gcPBM binding intensity (ln(normalized median fluorescence intensity)); higher = stronger DNA binding
Over roughly 25,000 sequences, “ln(normalized median fluorescence intensity)” has its median near 9.7; the highest 2% begin near 11. Many of the other results were omitted from the sample, so the highest values are more common in it than they were.

Per the record, CATACACCCATACATACACACATACATATATATATA [CACACA_site8591] has gcPBM binding intensity (ln) of 9.98

Per the record, TGTAGTCTGGAGAAGAGTACACAGTATCTGGTAGCT [XGTACX_site2036] has gcPBM binding intensity (ln) of 9.72

Per the record, CATATACATACACATACACACATACACCCATACACA [CACACA_site8514] has gcPBM binding intensity (ln) of 10.2

Per the record, ATTTTGTGTAGTGATGCATGTTATATATATATTTGA [TGCATGCA_site422] has gcPBM binding intensity (ln) of 9.83

----------
- System: PfAP2-HC AP2 domain (GST-tagged)
- Assay method text: gcPBM binding intensity (ln(normalized median fluorescence intensity)); higher = stronger DNA binding
Whole data set: some 25,000 sequences, median “ln(normalized median fluorescence intensity)” near 9.7, cut for the highest 2% near 11. What follows is part of a selection rich in the highest values, with near analogues and random picks from the rest.
Returns 1 if the recorded gcPBM binding intensity (ln) is greater than or equal to 10, and 0 otherwise.

input: Is reported gcPBM binding intensity (ln) greater than or equal to 10 here: GATTATTTTATAAGTACACACATTTATCTATAATAA [CACACA_site7256]
output: 0

input: Is reported gcPBM binding intensity (ln) greater than or equal to 10 here: TATAAATATGTATATGCATGTGGAATATATAATTAA [TGCATGCA_site226]
output: 0

input: Is reported gcPBM binding intensity (ln) greater than or equal to 10 here: ATACATCAAGGACACACACACACACCCACACCCACA [CACACA_site8013]
output: 1

input: Is reported gcPBM binding intensity (ln) greater than or equal to 10 here: ATGTGTTTCTTCAATTGTACTAAAAGGTATATATTG [XGTACX_site4608]
output: 0

input: Is reported gcPBM binding intensity (ln) greater than or equal to 10 here: TACATACATACATACACACACACATCTATATTTATA [CACACA_site6171]
output: 1

input: Is reported gcPBM binding intensity (ln) greater than or equal to 10 here: AAAAATTTTTTTTCATTTGTTTTTATTCCGTAAAAA [CACACA_negctrl_site1217]
output: 0

input: Is reported gcPBM binding intensity (ln) greater than or equal to 10 here: TTGGATTTTCCATAATGTACACATAAAAGTGTTACA [XGTACX_site4544]
output: 0

input: Is reported gcPBM binding intensity (ln) greater than or equal to 10 here: AATATATATTAAATATGTACTTATTTTTTGGTTGCT [XGTACX_site3613]
output: 0

input: Is reported gcPBM binding intensity (ln) greater than or equal to 10 here: ATATATCCAAATAGATTACATATATATATATAGATA [TGCATGCA_negctrl_site277]
output: 0

input: Is reported gcPBM binding intensity (ln) greater than or equal to 10 here: TTTTTTTTTGAATACAGTACACAAGTGTTAAGTTTA [XGTACX_site7069]
output: 0

input: Is reported gcPBM binding intensity (ln) greater than or equal to 10 here: TTATACTAAATGAACACACACACATCTATATTTATA [CACACA_site6199]
output: 1

input: Is reported gcPBM binding intensity (ln) greater than or equal to 10 here: TGAACACACGAGCACACACACACATCTATATTTATA [CACACA_site6607]
output: 1

----------
Provide the reported gcPBM binding intensity (ln) of each item.
- Test system: PfAP2-HC AP2 domain (GST-tagged)
- Assay method text: gcPBM binding intensity (ln(normalized median fluorescence intensity)); higher = stronger DNA binding
Whole data set: some 25,000 sequences, median “ln(normalized median fluorescence intensity)” near 9.7, cut for the highest 2% near 11. This is one part of a sample in which the highest values are shown more often than they occur.

Per the record, AAAACAAATGCTTAAAGTACTTATTATTTTTCTTTT [XGTACX_site6324] has gcPBM binding intensity (ln) of 9.57

Per the record, TATACTCATGGACACACACACATACACAGACATACA [CACACA_site5024] has gcPBM binding intensity (ln) of 10.4

Per the record, CGCACAGACGGACACACACACACATATATATATATA [CACACA_site5249] has gcPBM binding intensity (ln) of 11.1
